B1: NP_116010.1 (parent)
chain: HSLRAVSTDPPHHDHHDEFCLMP

Variants of: B1
Experiment: protein stability index of a GFP-peptide fusion (GPS, HEK-293T) (PSI 1-6); higher = more stable;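 note: lentivirally expressed fusion library, cells FACS-sorted into six equal-sized GFP/DsRed ratio bins, PSI computed from sequencing read fractions per bin weighted by bin number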
Details: c terminus: native
For each entry below, report its protein stability index value.
One number for each entry.

sequence.change	reported.measurement
H16I	2.87

Hey, quick one: what's protein stability index for each of these?
1. C20E
2. D9V
3. D17I
4. S7V
5. P10Y
6. T8I
7. P11E

[2.5, 2.11, 2.57, 2.39, 2.4, 2.59, 2.72]
